Origin of values: patent US10513521B2

testedTarget: ALK6 (Homo sapiens, UniProt O00238)
Sequence (O00238 14-502): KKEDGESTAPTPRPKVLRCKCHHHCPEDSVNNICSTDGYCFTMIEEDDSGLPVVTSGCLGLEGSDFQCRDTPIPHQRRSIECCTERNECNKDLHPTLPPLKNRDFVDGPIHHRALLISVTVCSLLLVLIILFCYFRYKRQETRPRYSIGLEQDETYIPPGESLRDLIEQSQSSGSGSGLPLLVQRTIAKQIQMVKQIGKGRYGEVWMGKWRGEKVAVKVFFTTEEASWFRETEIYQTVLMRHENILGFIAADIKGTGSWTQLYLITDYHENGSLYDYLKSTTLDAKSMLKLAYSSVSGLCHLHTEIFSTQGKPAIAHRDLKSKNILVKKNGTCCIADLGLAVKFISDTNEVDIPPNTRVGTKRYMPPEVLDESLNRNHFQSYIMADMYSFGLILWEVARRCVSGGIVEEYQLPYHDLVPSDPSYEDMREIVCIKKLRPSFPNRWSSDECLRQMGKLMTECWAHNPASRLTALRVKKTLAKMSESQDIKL
protocolDetails: TR-FRET enzymatic ALK kinase assay, ALK6
Measured IC50 values are reported for all entries that follow.

- compound: "c1ccc(-c2cnn3cc(-c4ccc(CCN5CCCCC5)cc4)cnc23)cc1 [Compound 88]"
  IC50: "> 10 µM"
- compound: "C[C@@H]1CNC[C@H](C)N1c1ccc(-c2cnc3c(-c4ccc(C(=O)C(F)(F)F)c5ccccc45)cnn3c2)cc1 [Compound 30]"
  IC50: "2.38 µM"
- compound: "CS(=O)(=O)c1cccc(-c2cnn3cc(-c4ccc(OC5(CN6CCC(O)C6)CC5)cc4)cnc23)c1 (stereo not shown) [Compound 195]"
  IC50: "> 10 µM"

Indicate the recorded IC50 value for this compound: CC(C)(O)c1cccc(-c2cnn3cc(-c4ccc(CCN5CCCCC5)cc4)cnc23)c1 [Compound 99]
> 10 µM
